# Tested on: immune-stimulated human THP-1 monocytic cells (toxicity toward SH-SY5Y neuronal cells)
# TEST NAME: Anti-neurotoxic activity: supernatants of compound-treated stimulated THP-1 cells transferred to SH-SY5Y cells (MTT assay)
# Format: cell-based
# REPORTED CONDITIONS: Homo sapiens; estimated from Figure 4; read-out: IC50 for reducing toxic effect of stimulated THP-1 supernatants on SH-SY5Y cells
pIC50: −log10 of the molar value.
VALUE KIND: pIC50

// worked examples, pIC50 included
# MOL, pIC50
records = [
    ("N#Cc1cnn(-c2ccccc2)c1NC(=O)C(=O)NCCCCCCCCCN", "4.00 to 4.30"),
    ("CN(C)CCOC(=O)C(=O)Nc1c(C#N)cnn1-c1ccccc1", "4.30 to 5.00"),
    ("N#Cc1cnn(-c2ccccc2)c1NC(=O)C(=O)Nc1ccc(N)cc1", "4.30 to 5.00"),
    ("N#Cc1cnn(-c2ccccc2)c1NC(=O)C(=O)N(C1CCCCC1)C1CCCCC1", "4.30 to 5.00"),
]

Query molecule follows.
// query Identify pIC50 associated with the molecule CN(C)C(=O)C(=O)Nc1c(C#N)cnn1-c1ccccc1
// result 4.30 to 5.00

###

VALUE KIND: melting point

# MOL, VALUE REPORTED
records = [
    ("CN(C)C(=O)C(=O)Nc1c(C#N)cnn1-c1ccccc1", "250 to 253 °C"),
    ("N#Cc1cnn(-c2ccccc2)c1NC(=O)C(=O)N(C1CCCCC1)C1CCCCC1", "188 to 190 °C"),
    ("N#Cc1cnn(-c2ccccc2)c1NC(=O)C(=O)NCCCCCCCCCN", "108 to 110 °C"),
    ("C=CCNC(=O)C(=O)Nc1c(C#N)cnn1-c1ccccc1", "108 to 110 °C"),
    ("N#Cc1cnn(-c2ccccc2)c1NC(=O)C(=O)Nc1ccc(N)cc1", "258 to 261 °C"),
]

Give melting point for each of the items listed below.
1. N#Cc1cnn(-c2ccccc2)c1NC(=O)C(=O)Nc1ccc(O)cc1
2. CN(C)CCOC(=O)C(=O)Nc1c(C#N)cnn1-c1ccccc1

// result
["237 to 239 °C", "139 to 141 °C"]
